Here's what we have: pIC50 numbers for PDE10A (human) (Homo sapiens, UniProt Q9Y233).
pIC50: −log10 of the molar value. Counter-ions that a name gives are not always drawn.

Exercise: Under PDE10A (human) (Homo sapiens, UniProt Q9Y233), report pIC50 for O=C1c2c(-c3ccncc3)ccnc2CN1CCc1cn2ccccc2n1
Key: > 7.00

Exercise: Quote PDE10A (human) (Homo sapiens, UniProt Q9Y233) pIC50 for entry Cn1c(CCN2Cc3cccc(-c4ccc(F)cc4)c3C2=O)nc2ccccc21 [Example 211, trifluoroacetate] .
Key: 6.30 to 6.70

Exercise: # return pIC50 for CCOC(=O)C1CCN(c2ccnc3c2C(=O)N(CCc2ccc4ccccc4n2)C3)CC1 , test system: PDE10A (human) (Homo sapiens, UniProt Q9Y233)
Sequence (Q9Y233 whole entry): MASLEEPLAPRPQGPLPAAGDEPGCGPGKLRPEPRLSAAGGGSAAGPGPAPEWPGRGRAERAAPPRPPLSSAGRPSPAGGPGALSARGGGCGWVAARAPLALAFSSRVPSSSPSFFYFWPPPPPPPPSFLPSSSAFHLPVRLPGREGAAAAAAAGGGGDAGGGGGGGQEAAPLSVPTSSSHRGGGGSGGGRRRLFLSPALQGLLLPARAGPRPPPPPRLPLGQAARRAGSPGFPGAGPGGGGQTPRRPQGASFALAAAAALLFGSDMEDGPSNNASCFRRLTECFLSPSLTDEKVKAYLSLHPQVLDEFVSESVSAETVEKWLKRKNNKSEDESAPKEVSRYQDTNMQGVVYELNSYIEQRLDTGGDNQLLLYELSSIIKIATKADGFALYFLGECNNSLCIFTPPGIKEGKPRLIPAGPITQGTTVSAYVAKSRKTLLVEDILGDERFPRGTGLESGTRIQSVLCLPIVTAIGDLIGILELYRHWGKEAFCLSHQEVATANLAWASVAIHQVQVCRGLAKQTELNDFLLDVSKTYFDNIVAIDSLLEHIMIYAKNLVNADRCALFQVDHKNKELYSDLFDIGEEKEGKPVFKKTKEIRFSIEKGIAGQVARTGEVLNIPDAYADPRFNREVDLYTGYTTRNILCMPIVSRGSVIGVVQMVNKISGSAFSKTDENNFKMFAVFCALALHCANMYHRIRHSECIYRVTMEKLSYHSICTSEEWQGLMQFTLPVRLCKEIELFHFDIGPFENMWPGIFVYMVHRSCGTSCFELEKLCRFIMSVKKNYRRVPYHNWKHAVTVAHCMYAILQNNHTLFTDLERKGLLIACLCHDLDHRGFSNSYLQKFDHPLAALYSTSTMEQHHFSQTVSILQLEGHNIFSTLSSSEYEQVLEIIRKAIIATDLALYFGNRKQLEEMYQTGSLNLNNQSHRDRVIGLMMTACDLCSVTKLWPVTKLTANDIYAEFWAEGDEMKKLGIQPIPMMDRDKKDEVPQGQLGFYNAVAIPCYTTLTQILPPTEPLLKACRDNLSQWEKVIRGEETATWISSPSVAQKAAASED
Key: 6.30 to 6.70

Exercise: Tell me pIC50 of CN1CCC(N2CCN(c3cccc4c3C(=O)N(CCc3ccc5ccccc5n3)C4)CC2)CC1 when tested on PDE10A (human) (Homo sapiens, UniProt Q9Y233).
Key: 6.30 to 6.70

Exercise: System PDE10A (human) (Homo sapiens, UniProt Q9Y233). Read-out pIC50. Item O=C1c2c(cccc2N2CCOCC2)CN1CCc1ccc2cc(F)ccc2n1 [Example 115, trifluoroacetate] . Report value.
Key: > 7.00

Exercise: Under PDE10A (human) (Homo sapiens, UniProt Q9Y233): report pIC50 of COc1cccc(CCN2Cc3nccc(-c4cccnc4)c3C2=O)n1 [compound 503, trifluoroacetate] .
Key: 6.70 to 7.00

Exercise: Report the value of pIC50 obtained on PDE10A (human) (Homo sapiens, UniProt Q9Y233) for COc1ccc(-c2ccnc3c2CN(CCc2ccc4ccccc4n2)C3=O)cc1 [compound 458, trifluoroacetate] .
Key: > 7.00

Exercise: Retrieve pIC50 on PDE10A (human) (Homo sapiens, UniProt Q9Y233); query Cn1c(CCN2Cc3cccc(-c4cccnc4)c3C2=O)nc2ccccc21
Key: > 7.00

Exercise: Report pIC50 from PDE10A (human) (Homo sapiens, UniProt Q9Y233) testing of O=C1c2c(N3CCC(C(F)F)C3)ccnc2CN1CCc1cn2ccccc2n1 (stereo not drawn)
Key: > 7.00

Exercise: Please look at O=C1c2c(-c3ccc(F)cc3)ccc(F)c2CN1CCc1cn2ccccc2n1 and tell me its recorded pIC50 on PDE10A (human) (Homo sapiens, UniProt Q9Y233).
Key: 6.70 to 7.00

Exercise: Find pIC50 for O=C1c2c(cccc2-c2ccc3c(c2)CCO3)CN1CCc1ccc2ccccc2n1 on PDE10A (human) (Homo sapiens, UniProt Q9Y233) and write it down.
Key: 6.30 to 6.70

Exercise: Report pIC50 under test system PDE10A (human) (Homo sapiens, UniProt Q9Y233) for O=C1c2c(cccc2-c2ccoc2)CN1CCc1ccc2ccccc2n1 .
Key: > 7.00

Exercise: Give reported pIC50 for O=C1c2c(cccc2-c2ccc3[nH]cnc(=O)c3c2)CN1CCc1ccc2ccccc2n1 [Example 7, trifluoroacetate] (PDE10A (human) (Homo sapiens, UniProt Q9Y233))
Key: 6.30 to 6.70

Exercise: State, for PDE10A (human) (Homo sapiens, UniProt Q9Y233), measured pIC50 of the molecule listed here: O=C1Cc2ccc(-c3cccc4c3C(=O)N(CCc3cn5ccccc5n3)C4)cc2N1
Key: > 7.00

Exercise: Print PDE10A (human) (Homo sapiens, UniProt Q9Y233) pIC50 for CNCOc1ccc(-c2ccncc2)c2c1CN(CCc1ccc3ccccc3n1)C2=O .
Key: > 7.00

The measured values listed here are drawn from patent US9938269B2.
